system: Severe acute respiratory syndrome-related coronavirus; assay: Binding affinity to SARS-CoV nsp14 assessed as increase in melting temperature at 1 mM at pH 7.5 by differential scanning fluorimetry

COMPOUND | ΔTm, °C
Nc1ncnc2c1ncn2[C@@H]1OC(CN(CCO[C@@H]2[C@H](O)C(CO)O[C@H]2n2cnc3c(N)ncnc32)S(=O)(=O)c2ccc(Cl)cc2)[C@@H](O)[C@H]1O (single isomer, unassigned) | 4.6
Nc1ncnc2c1ncn2[C@@H]1OC(CN(CCCc2ccccc2)CCO[C@@H]2[C@H](O)C(CO)O[C@H]2n2cnc3c(N)ncnc32)[C@@H](O)[C@H]1O (single isomer, unassigned) | 4.6
Nc1ncnc2c1ncn2[C@@H]1OC(CN(CCO[C@@H]2[C@H](O)C(CO)O[C@H]2n2cnc3c(N)ncnc32)Cc2ccc(Cl)cc2)[C@@H](O)[C@H]1O (single isomer, unassigned) | 4.6
Nc1ncnc2c1ncn2[C@@H]1OC(CN(CCO[C@@H]2[C@H](O)C(CO)O[C@H]2n2cnc3c(N)ncnc32)Cc2ccc(Cl)c([N+](=O)[O-])c2)[C@@H](O)[C@H]1O (single isomer, unassigned) | 4.6
Nc1ncnc2c1ncn2[C@@H]1O[C@H](CSCC[C@H](N)C(=O)O)[C@@H](O)[C@H]1O | 6.5
